Applied Conditions: FVB, mouse, plasma (portal vein), oral, 2 mg/kg, Cpv of topotecan, topotecan 2 mg/kg po, mdr1a/1b KO mice

{"columns": ["Smiles Repr", "Unit Tag", "concentration at 30 min"],
 "data": [
  ["CC[C@@]1(O)C(=O)OCc2c1cc1n(c2=O)Cc2cc3c(CN(C)C)c(O)ccc3nc2-1", "nM", 236]
]}

* * *

Assay Summary: in vivo
Applied Conditions: FVB, mouse, systemic (abdominal vein) plasma, po, 20 mg/kg
Readout Type: AUC (µM·h)

{"columns": ["Compound", "Readout Type", "Reported Measurement"],
 "data": [
  ["CC(=O)O[C@H]1C(=O)[C@@]2(C)[C@H]([C@H](OC(=O)c3ccccc3)[C@]3(O)C[C@H](OC(=O)[C@H](O)[C@@H](NC(=O)c4ccccc4)c4ccccc4)C(C)=C1C3(C)C)[C@]1(OC(C)=O)CO[C@@H]1C[C@@H]2O [paclitaxel]", "AUC", 3.09]
]}

The reported numbers originate from paper PMC7999658.
